- tested on: biotinylated human FN-67B89 (Homo sapiens)
- Construct: flanked by its surrounding type III domains (FN-67B89, amino acid G1080-E1455); made in house; host or cells: E. coli BL21 (DE3), pET-21a
- Sequence (P02751 1080-1546): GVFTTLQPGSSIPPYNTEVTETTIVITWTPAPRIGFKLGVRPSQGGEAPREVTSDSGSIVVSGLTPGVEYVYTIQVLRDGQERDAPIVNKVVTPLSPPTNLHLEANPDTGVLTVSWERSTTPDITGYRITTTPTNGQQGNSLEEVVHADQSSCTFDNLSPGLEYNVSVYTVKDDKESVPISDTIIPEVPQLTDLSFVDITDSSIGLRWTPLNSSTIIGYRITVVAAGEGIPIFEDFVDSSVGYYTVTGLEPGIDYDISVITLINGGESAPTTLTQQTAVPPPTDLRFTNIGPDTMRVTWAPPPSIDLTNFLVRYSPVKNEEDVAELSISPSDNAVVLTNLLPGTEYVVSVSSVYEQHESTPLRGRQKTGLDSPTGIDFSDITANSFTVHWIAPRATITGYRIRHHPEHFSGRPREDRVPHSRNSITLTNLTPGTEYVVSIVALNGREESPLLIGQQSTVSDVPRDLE
- test details: Surface plasmon resonance, binding kinetics to FN-67B89
- study conditions: SPR Biacore T-100, biotinylated human FN-67B89 on streptavidin chip, PBS-T, 1:1 Langmuir fit
pKd: −log10 of the molar value. Where no end group is shown, it is not given here.

| sequence text | pKd |
| --- | --- |
| PMCTQRKNRIRLCRRDSDCTGACICRGNGYCG (also: bicyclic or more (positions not given here)) [MC-FN-010] | 5.80 |
